Overview of reported melting point across a group of molecules:

Illustrative cases are given below, each with its answer.
molecule=CCNc1nc(SC)ncc1CNc1c(F)c(OC)cc(OC)c1F recorded_result="95 to 99 °C"
molecule="CCOC(=O)C1=C(C(=O)OCC)N(c2ccccc2)C(c2ccccc2)N(c2ccccc2)C1 (stereo not drawn)" recorded_result="120 °C"
molecule=CCCCCN(CCC12CC3CC(CC(C3)C1)C2)C(=O)NCCCc1cccnc1 recorded_result="99.9 to 105 °C"
molecule=COC(=O)c1c(OC)cc(OC)nc1C(F)(F)F recorded_result="85 to 87.5 °C"
molecule=CC(C)(C)OC(=O)c1ccc(OCCCCl)cc1 recorded_result="57.5 to 58.5 °C"

Query melting point for CS(=O)c1ccc(COC(=O)N2CCN(CC3(C)Cn4cc([N+](=O)[O-])nc4O3)CC2)cc1 (stereo not drawn)
117 to 121 °C

Give recorded melting point. N#Cc1ccccc1C(F)(F)C(F)(F)c1ccc(F)cc1
90 to 93 °C

Report melting point, nothing else, for this molecule: C=Cc1cc(C(C)NC(=O)Nc2ccc(C(C)(C)C)cc2)ccc1NS(=O)(=O)C=C (stereo not drawn)
60 to 62 °C

State its melting point: C[C@H](O)c1ccccc1S(=O)(=O)c1ccc(/C=C/c2ccc(F)cc2)cc1
75 °C

Provide measured melting point value, entry: COc1c(CNS(=O)(=O)c2ccc(C)cc2)ccc2c1OCO2
150 to 151 °C

Identify the reported melting point for the following entry. CCOC(=O)C(=O)c1oc(-n2cnc3ccccc32)nc1-c1ccc(Cl)cc1
143 to 144 °C
